FYI, the data here is from paper PMC10608985.

Assay: HPLC lipophilicity on cholesterol (Chol) stationary phase
Assay type: physicochemical
Details: Table S3; MeOH 0.50 v/v in mobile phase, pH 7.4
readout.name: Log k Chol
Give bare numbers.

Known results for compounds:
[[record]]
compound = "O=C(COc1ccccc1)NNC(=S)Nc1ccccc1Cl [Compound 3]"
reported = 0.198

[[record]]
compound = "O=C(COc1ccccc1)NNC(=S)Nc1ccc(Cl)c(Cl)c1 [Compound 15]"
reported = 1.013

[[record]]
compound = "O=C(COc1ccccc1)NNC(=S)Nc1ccccc1 [Compound 1]"
reported = 0.110

[[record]]
compound = "O=C(COc1ccccc1)NNC(=S)Nc1ccc(Br)cc1 [Compound 11]"
reported = 0.571

[[record]]
compound = "O=C(COc1ccccc1)NNC(=S)Nc1ccc(Cl)cc1 [Compound 10]"
reported = 0.479


[in] Which value of Log k Chol has been reported for O=C(COc1ccccc1)NNC(=S)Nc1ccc(I)cc1 [Compound 12] in the records?
[out] 0.685

====

What Log k IAM was measured for each of the following?
Experiment: HPLC lipophilicity on IAM (immobilized artificial membrane, phosphatidylcholine) stationary phase
Type: physicochemical
Conditions: Table S2; ACN 0.10 v/v in mobile phase, pH 7.4

Known results for molecules:
[[record]]
smiles_str = "O=C(COc1ccccc1)NNC(=S)Nc1ccc(F)cc1"
reported = 0.588

[[record]]
smiles_str = "O=C(COc1ccccc1)NNC(=S)Nc1ccccc1F"
reported = 0.692

[[record]]
smiles_str = "O=C(COc1ccccc1)NNC(=S)Nc1ccc([N+](=O)[O-])cc1"
reported = 0.964

[[record]]
smiles_str = "O=C(COc1ccccc1)NNC(=S)Nc1cccc(Cl)c1"
reported = 1.270

[[record]]
smiles_str = "O=C(COc1ccccc1)NNC(=S)Nc1cccc2ccccc12"
reported = 1.105

[[record]]
smiles_str = "O=C(COc1ccccc1)NNC(=S)Nc1cccc(F)c1"
reported = 0.876

[[record]]
smiles_str = "O=C(COc1ccccc1)NNC(=S)Nc1ccc(Cl)cc1"
reported = 1.235


Attention now turns to another entry.
[in] Which value of Log k IAM has been reported for CSc1ccc(NC(=S)NNC(=O)COc2ccccc2)cc1 in the records?
[out] 1.147

====

Assay: HPLC lipophilicity on IAM (immobilized artificial membrane, phosphatidylcholine) stationary phase
Assay type: physicochemical
Details: Table S2; ACN 0.25 v/v in mobile phase, pH 7.4
What Log k IAM was measured for each of the following?
Numbers only.

Known results for compounds:
[[record]]
compound = "O=C(COc1ccccc1)NNC(=S)Nc1ccccc1I [Compound 4]"
reported = 0.451

[[record]]
compound = "O=C(COc1ccccc1)NNC(=S)Nc1cccc(F)c1 [Compound 5]"
reported = 0.024


Report Log k IAM for every entry below.
1. O=C(COc1ccccc1)NNC(=S)Nc1ccc([N+](=O)[O-])cc1 [Compound 16]
2. O=C(COc1ccccc1)NNC(=S)Nc1cccc(I)c1 [Compound 8]

[out]
1. 0.016
2. 0.573

====

Assay: HPLC lipophilicity on IAM (immobilized artificial membrane, phosphatidylcholine) stationary phase
Assay type: physicochemical
Conditions: Table S2; ACN 0.30 v/v in mobile phase, pH 7.4
readout.name: Log k IAM
Numbers only.

Known results for molecules:
[[record]]
molecule = "O=C(COc1ccccc1)NNC(=S)Nc1ccc(Br)cc1 [Compound 11]"
reported = 0.004

[[record]]
molecule = "O=C(COc1ccccc1)NNC(=S)Nc1cccc2ccccc12 [Compound 18]"
reported = -0.130


[in] Which value of Log k IAM has been reported for O=C(COc1ccccc1)NNC(=S)Nc1ccc(Cl)cc1Cl [Compound 13] in the records?
[out] 0.067
